Molecular target: full-length beta-catenin (Axin site) (Homo sapiens)
Construct: 15 nM full-length beta-catenin, 20 nM FITC labeled peptide in buffer
Sequence (P35222 1-781): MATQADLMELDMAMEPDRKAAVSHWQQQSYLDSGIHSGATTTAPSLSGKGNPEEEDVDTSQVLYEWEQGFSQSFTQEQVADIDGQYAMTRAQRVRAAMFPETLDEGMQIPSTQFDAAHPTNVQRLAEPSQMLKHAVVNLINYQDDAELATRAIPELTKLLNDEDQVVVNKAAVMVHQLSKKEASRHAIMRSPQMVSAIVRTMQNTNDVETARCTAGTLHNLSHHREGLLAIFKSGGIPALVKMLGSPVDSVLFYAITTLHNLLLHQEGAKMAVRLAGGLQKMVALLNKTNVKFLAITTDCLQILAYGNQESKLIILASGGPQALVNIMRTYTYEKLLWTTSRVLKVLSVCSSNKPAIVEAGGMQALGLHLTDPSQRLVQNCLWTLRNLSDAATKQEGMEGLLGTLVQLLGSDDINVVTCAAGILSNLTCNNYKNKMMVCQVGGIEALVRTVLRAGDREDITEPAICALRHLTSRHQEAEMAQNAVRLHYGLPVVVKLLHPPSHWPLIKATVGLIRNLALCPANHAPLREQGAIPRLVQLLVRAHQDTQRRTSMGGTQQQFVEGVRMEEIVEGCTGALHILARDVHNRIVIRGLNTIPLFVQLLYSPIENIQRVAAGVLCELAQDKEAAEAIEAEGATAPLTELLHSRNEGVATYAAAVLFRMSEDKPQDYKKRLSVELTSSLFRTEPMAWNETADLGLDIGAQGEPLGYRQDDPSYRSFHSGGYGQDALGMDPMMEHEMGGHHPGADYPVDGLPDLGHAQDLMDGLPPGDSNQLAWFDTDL
Experiment: Competition fluorescence polarization assay (Axin site probe)
Assay type: binding
Settings: competition fluorescence polarization, Table 2; read-out: in vitro FP EC50
Method: FIG. 1. […] Peptide solutions were prepared in buffer (50 mM Tris pH 8.0, 250 mM NaCl, 2% glycerol, 0.5 mM EDTA, 0.02% w/v sodium azide) using a 3-fold serial dilution from 5 μM. […] Equal volume of the titrated peptide was added to the plate and incubated protected from light for 15 minutes prior to read. Reads were performed on a Spectramax M5 (Molecular Devices) in duplicate. FIG. 7. […] Reads were performed on a Spectramax M5 (Molecular Devices) in duplicate. […]
Numbered stars: 1 amine (or outer) side, 2 acyl side, 3 side chain; on linkers, the order of the positions; unused ones are H or OH. Bridge positions count the residues as written; N and C are the ends. Square brackets hold non-standard residues; d marks the D form. Peptide text beside a SMILES is read from it. 3Aminoazetidine3carboxyl = O=C(C1(N[*:1])CN([*:3])C1)[*:2]; αMeDab(Me) = CN(CC[C@](C)(N[*:1])C(=O)[*:2])[*:3]; X8 = CN(CC=[*:3])CCC[C@](C)(N[*:1])C(=O)[*:2]; X7 = C[C@](CCCCC=[*:3])(N[*:1])C(=O)[*:2]; X1 = O=C([C@]1(N[*:1])CCN([*:3])C1)[*:2]; X2 = O=C(OCC=CCOC(=O)[*:2])[*:1]

| molecule | assay target | EC50 |
| --- | --- | --- |
| CC[C@H](C)[C@@H]1NC(=O)[C@H](Cc2c[nH]cn2)NC(=O)[C@H](C)NC(=O)[C@H](CC(=O)O)NC(=O)[C@H](CC(C)C)NC(=O)[C@H]([C@@H](C)CC)NC(=O)[C@](C)(NC(=O)[C@H](C)NC(C)=O)CCCCC=CCN(C)CCC[C@@](C)(C(=O)N[C@@H](CCCNC(=N)N)C(=O)N[C@H](C(=O)N[C@@H](Cc2c[nH]c3ccccc23)C(N)=O)C(C)C)NC1=O [FP0511a, Ac-A-R6-I-L-D-A-H-I-MH-R-V-W-NH2] (Ac-A[X7]ILDAHI[X8]RVW-NH2; staple 2-9) | full-length beta-catenin (Axin site) (Homo sapiens) | < 100 nM |
| CC[C@H](C)[C@@H]1NC(=O)[C@H](Cc2c[nH]cn2)NC(=O)[C@H](C)NC(=O)[C@H](CC(=O)O)NC(=O)[C@H](CC(C)C)NC(=O)[C@H]([C@@H](C)CC)NC(=O)C2(NC(=O)[C@H](C)NC(C)=O)CN(C2)C(=O)OCC=CCOC(=O)N(C)CC[C@@](C)(C(=O)N[C@@H](CCCNC(=N)N)C(=O)N[C@H](C(=O)N[C@@H](Cc2c[nH]c3ccccc23)C(N)=O)C(C)C)NC1=O [FP0611c, Ac-A-MA-I-L-D-A-H-I-MF-R-V-W-NH2] (Ac-A[3Aminoazetidine3carboxyl]ILDAHI[αMeDab(Me)]RVW-NH2; linker 2-9 via X2) | full-length beta-catenin (Axin site) (Homo sapiens) | < 100 nM |
| CC[C@H](C)[C@@H]1NC(=O)[C@H](Cc2cccs2)NC(=O)[C@H](C)NC(=O)[C@H](CC(=O)O)NC(=O)[C@H](CC(C)C)NC(=O)[C@H]([C@@H](C)CC)NC(=O)[C@](C)(NC(=O)[C@H](C)NC(C)=O)CCCCCCC=CCOC(=O)N2CC[C@@](C(=O)N[C@@H](CCCNC(=N)N)C(=O)N[C@H](C(=O)N[C@@H](Cc3c[nH]c4ccccc34)C(N)=O)C(C)C)(C2)NC1=O [FP0536c, Ac-A-R8-I-L-D-A-thi-I-MB-R-V-W-NH2] | full-length beta-catenin (Axin site) (Homo sapiens) | > 5000 nM |
| CC[C@H](C)[C@@H]1NC(=O)[C@H](Cc2c[nH]cn2)NC(=O)[C@H](C)NC(=O)[C@H](CC(=O)O)NC(=O)[C@H](CC(C)C)NC(=O)[C@H](C)NC(=O)[C@](C)(NC(=O)[C@H](C)NC(C)=O)CCCCCCC=CCOC(=O)N2CC[C@@](C(=O)N[C@@H](CCCNC(=N)N)C(=O)N[C@H](C(=O)N[C@@H](Cc3c[nH]c4ccccc34)C(N)=O)C(C)C)(C2)NC1=O [FP0405c, Ac-A-R8-A-L-D-A-H-I-MB-R-V-W-NH2] | full-length beta-catenin (Axin site) (Homo sapiens) | 500 to 5000 nM |
| CC[C@H](C)[C@@H]1NC(=O)[C@H](Cc2ccccn2)NC(=O)[C@H](C)NC(=O)[C@H](CC(=O)O)NC(=O)[C@H](CC(C)C)NC(=O)[C@H]([C@@H](C)CC)NC(=O)[C@](C)(NC(=O)[C@H](C)NC(C)=O)CCCCCCC=CCOC(=O)N2CC[C@@](C(=O)N[C@@H](Cc3ccc(C)cc3)C(=O)N[C@H](C(=O)N[C@@H](Cc3c[nH]c4ccccc34)C(N)=O)C(C)C)(C2)NC1=O (single isomer, unassigned) [FP0578c Isomer 2, Ac-A-R8-I-L-D-A-2pyr-I-MB-4MeF-V-W-NH2] | full-length beta-catenin (Axin site) (Homo sapiens) | > 5000 nM |
| CC[C@H](C)[C@@H]1NC(=O)[C@H](Cc2c[nH]cn2)NC(=O)[C@H](C)NC(=O)[C@H](CC(=O)O)NC(=O)[C@H](CC(C)C)NC(=O)[C@H]([C@@H](C)CC)NC(=O)[C@](C)(NC(=O)[C@H](C)NC(C)=O)CCCCCCC=CCCC[C@@](C)(C(=O)N[C@@H](CCCNC(=N)N)C(=O)N[C@H](C(=O)N[C@@H](Cc2c[nH]c3ccccc23)C(N)=O)C(C)C)NC1=O (single isomer, unassigned) [FP0217s Isomer 2, Ac-A-R8-I-L-D-A-H-I-S5-R-V-W-NH2] | full-length beta-catenin (Axin site) (Homo sapiens) | < 100 nM |
| CC[C@H](C)[C@@H]1NC(=O)[C@H](Cc2c[nH]cn2)NC(=O)[C@H](C)NC(=O)[C@H](CC(=O)O)NC(=O)[C@H](CC(C)C)NC(=O)[C@H]([C@@H](C)CC)NC(=O)C2(NC(=O)[C@H](C)NC(C)=O)CN(C2)C(=O)OCC=CCOC(=O)N2CC[C@@](C(=O)N[C@@H](CCCNC(=N)N)C(=O)N[C@H](C(=O)N[C@@H](Cc3c[nH]c4ccccc34)C(N)=O)C(C)C)(C2)NC1=O [FP0617c, Ac-A-MA-I-L-D-A-H-I-MB-R-V-W-NH2] (Ac-A[3Aminoazetidine3carboxyl]ILDAHI[X1]RVW-NH2; linker 2-9 via X2) | full-length beta-catenin (Axin site) (Homo sapiens) | < 100 nM |
| CC[C@H](C)[C@@H]1NC(=O)[C@H](Cc2c[nH]cn2)NC(=O)[C@H](C)NC(=O)[C@H](CC(=O)O)NC(=O)[C@H](CC(C)C)NC(=O)[C@H]([C@@H](C)CC)NC(=O)[C@](C)(NC(=O)[C@H](C)NC(C)=O)CCCCCCC=CCOC(=O)N2CC[C@@](C(=O)N[C@@H](CCCCNC)C(=O)N[C@H](C(=O)N[C@@H](Cc3c[nH]c4ccccc34)C(N)=O)C(C)C)(C2)NC1=O [FP0636c, Ac-A-R8-I-L-D-A-H-I-MB-lmeK-V-W-NH2] | full-length beta-catenin (Axin site) (Homo sapiens) | 100 to 500 nM |
| CC[C@H](C)[C@@H]1NC(=O)[C@H](Cc2ccccc2)NC(=O)[C@H](C)NC(=O)[C@H](CC(=O)O)NC(=O)[C@H](CC(C)C)NC(=O)[C@H]([C@@H](C)CC)NC(=O)[C@](C)(NC(=O)[C@H](C)NC(C)=O)CCCCCCC=CCOC(=O)N2CC[C@@](C(=O)N[C@@H](CCCNC(=N)N)C(=O)N[C@H](C(=O)N[C@@H](Cc3c[nH]c4ccccc34)C(N)=O)C(C)C)(C2)NC1=O [FP0540c, Ac-A-R8-I-L-D-A-F-I-MB-R-V-W-NH2] | full-length beta-catenin (Axin site) (Homo sapiens) | > 5000 nM |
